Assay: NCI Yeast Anticancer Drug Screen. Data for the mec2-1 strain (AID 157)
Details: S. cerevisiae mec2-1 strain; at 50.0 µM unless noted
This is part of a sample that, as a whole, favours compounds with a hit. Of some 79,000 tested, about 15% had one in any assay. Calls of active or inactive are those of the source. No stated cut-off is given here; in the data, active means growth inhibition above about 70%; inactive means the rest.
Tick one outcome: 1 (yes) (active), 0 (no) (inactive)

Exercise: I'd appreciate the recorded outcome for CC(=O)OCC(OC(C)=O)C(OC(C)=O)C(OC(C)=O)C(OC(C)=O)C(=O)NC1CCc2ccccc2C1 (stereo not given) from this test.
Solution: 0 (no)

* * *

Assay: NCI Yeast Anticancer Drug Screen. Data for the mec2-1 strain (AID 157)
Conditions: S. cerevisiae mec2-1 strain, hits give high values; at 50.0 µM unless noted
About 79,000 compounds went through this panel and 15% of them were active in at least one assay; those are over-represented in the sample as a whole.
Each item that follows carries a reported growth inhibition.
Field: numeric (%). Do not append units.

Take a look at these entries with their results.
Exercise: Respond only with growth inhibition recorded for CC(=Nc1cccc(Cl)c1)c1ccncc1
Solution: -10.2

Exercise: Respond only with growth inhibition recorded for OC(CN1CCCCC1)c1cc(-c2ccccc2)no1 (centres undefined)
Solution: 11.6

Exercise: Respond only with growth inhibition recorded for COc1cc(/C=C/C(=O)c2sc(Nc3ccccc3)nc2C)ccc1O
Solution: 2.8

Exercise: Respond only with growth inhibition recorded for CCCCCOC(=O)c1ccc(C(C)C)cc1
Solution: -6.2

Exercise: Respond only with growth inhibition recorded for OC(COc1cccc(C(F)(F)F)c1)CN1CCN(c2ccc(F)cc2)CC1 (centres undefined)
Solution: 88

Exercise: Respond only with growth inhibition recorded for CC(=O)c1cccc(NC(=O)CCCCCCCCC(=O)Nc2cccc(C(C)=O)c2)c1
Solution: -0.7

Next:
Exercise: Respond only with growth inhibition recorded for O=S(=O)(CCCl)c1ccc(Br)cc1
Solution: 44.6

Exercise: Respond only with growth inhibition recorded for Cc1ccc([N+](=O)[O-])cc1N1C(=O)c2ccccc2C1=O
Solution: -13.6

Exercise: Respond only with growth inhibition recorded for Cc1cc(=O)[nH]c2[nH]c(=O)ccc12
Solution: 0.05

Exercise: Respond only with growth inhibition recorded for COc1ccc(C(N2CCNCC2)N2CCNCC2)cc1
Solution: 6.3

Exercise: Respond only with growth inhibition recorded for CCOC(=O)C(Cc1ccc(Cl)cc1)(NC(C)=O)C(=O)OCC
Solution: -13.6

Exercise: Respond only with growth inhibition recorded for CC(=NCCCCN=C(C)c1cc(O)cc(Br)c1O)c1cc(O)cc(Br)c1O.[Co]
Solution: 17.9

Exercise: Respond only with growth inhibition recorded for CSc1ccc(C)cc1
Solution: -15.2

Exercise: Respond only with growth inhibition recorded for Nc1nc(N)c2nc(SC34CC5CC(CC(C5)C3)C4)c(N)nc2n1
Solution: 2.05

* * *

Each item that follows carries a reported growth inhibition.
Assay: NCI Yeast Anticancer Drug Screen. Data for the mec2-1 strain (AID 157)
Settings: S. cerevisiae mec2-1 strain, hits give high values; at 50.0 µM unless noted
About 79,000 compounds went through this panel and 15% of them were active in at least one assay; those are over-represented in the sample as a whole.
Field: numeric (%). Do not append units.

Take a look at these entries with their results.
Exercise: Respond only with growth inhibition recorded for CCOC(=O)C(C)NC(=O)C(C)NC(=O)C(C)NC(=O)C(C)NC(=O)C(C)NC(=O)OCc1ccccc1 (centres undefined)
Solution: 85.8

Exercise: Respond only with growth inhibition recorded for Cc1cc(C)c(CC(=O)c2ccccc2)c(C)c1
Solution: -9.5

Next:
Exercise: Respond only with growth inhibition recorded for CC(=O)c1cccc(NC(=O)Nc2ccc(F)c([N+](=O)[O-])c2)c1
Solution: 22.9

Exercise: Respond only with growth inhibition recorded for CCc1ccc2nccc(NCCCN(C)C)c2c1[N+](=O)[O-]
Solution: -13.4

Exercise: Respond only with growth inhibition recorded for CCCCNC(=S)NNC(=O)c1ccncc1
Solution: 3.65

Exercise: Respond only with growth inhibition recorded for O=C1CC(c2ccccc2)n2c(nc3ccccc32)N1 (centres undefined)
Solution: 1.85

Exercise: Respond only with growth inhibition recorded for O=C(O)CSc1nc2ccccc2[nH]1
Solution: 1.55
